Test system: HCC1599
Experiment: drug sensitivity score (DSS), CellTox Green (DSS (AUC-based score)); higher = stronger drug effect (viability inhibition or cytotoxicity); extreme values may be limits of the assay
Conditions: incubation time: 72 h
Reported drug sensitivity score values follow for various compounds
Measurement Type: drug sensitivity score

INSERT INTO assay_data (chemical_structure, target_entity, reported_result) VALUES
  ('Cn1c(CCCC(=O)O)nc2cc(N(CCCl)CCCl)ccc21', 'HCC1599', 0),
  ('CC(C)Cn1cnc2c(N)nc3ccccc3c21', 'HCC1599', 0),
  ('N[C@@H](CSC(c1ccccc1)(c1ccccc1)c1ccccc1)C(=O)O', 'HCC1599', 0);

====

System: MDA-MB-453
Assay: normalised viability (% of control), CellTiter-Blue; higher = more viable cells (about 100 = DMSO control)
Conditions: incubation time: 72 h
Friendly reminder: normalised viability below 60% is rule met, at or above is rule not met.

INSERT INTO assay_data (compound, target_entity, assigned_category) VALUES
  ('N.N.[Cl][Pt][Cl] [Cisplatin] (10000 nM)', 'MDA-MB-453', 'rule not met'),
  ('Cc1ccc(-n2nc(C(C)(C)C)cc2NC(=O)Nc2ccc(OCCN3CCOCC3)c3ccccc23)cc1 [Doramapimod] (10000 nM)', 'MDA-MB-453', 'rule not met'),
  ('CCC1=C[C@@H]2CN(C1)Cc1c([nH]c3ccccc13)[C@@](C(=O)OC)(c1cc3c(cc1OC)N(C)[C@H]1[C@@](O)(C(=O)OC)[C@H](OC(C)=O)[C@]4(CC)C=CCN5CC[C@]31[C@@H]54)C2 [Vinorelbine] (10000 nM)', 'MDA-MB-453', 'rule met'),
  ('CCN(CCCOc1ccc2c(Nc3cc(CC(=O)Nc4cccc(F)c4)[nH]n3)ncnc2c1)CCOP(=O)(O)O [Barasertib] (1000 nM)', 'MDA-MB-453', 'rule met');

====

Reported normalised response values follow for various molecules
Tested on: HCC1937
Assay: normalised response (% of control), CellTiter-Glo; higher = more viable cells (100 = DMSO, 0 = benzethonium chloride kill control)
Settings: incubation time: 72 h
Measurement Type: normalised response (%)

INSERT INTO assay_data (molecule, measurement_type, unit_label, reported_result) VALUES
  ('COc1cc([C@@H]2c3cc4c(cc3[C@@H](O[C@@H]3O[C@@H]5CO[C@@H](C)O[C@H]5[C@H](O)[C@H]3O)[C@H]3COC(=O)[C@H]23)OCO4)cc(OC)c1O [Etoposide] (1 nM)', 'normalised response', '%', 98.8),
  ('N.N.[Cl][Pt][Cl] [Cisplatin] (100 nM)', 'normalised response', '%', 102),
  ('Cc1ccc(C(=O)Nc2ccc(CN3CCN(C)CC3)c(C(F)(F)F)c2)cc1C#Cc1cnc2cccnn12 [Ponatinib] (1 nM)', 'normalised response', '%', 98.4),
  ('Cc1ccc(C(=O)N(CCCN)[C@@H](c2oc3cc(Cl)ccc3c(=O)c2Cc2ccccc2)C(C)C)cc1 (0.01 nM)', 'normalised response', '%', 102);

====

Tested on: HCC1937
Test: normalised viability (% of control), CellTiter-Blue; higher = more viable cells (about 100 = DMSO control)
Conditions: 1000 nM; incubation time: 72 h
Friendly reminder: normalised viability below 90% is y, at or above is n.

INSERT INTO results (compound, target_entity, assigned_category) VALUES
  ('COc1cc([C@@H]2c3cc4c(cc3[C@@H](O[C@@H]3O[C@@H]5CO[C@@H](C)O[C@H]5[C@H](O)[C@H]3O)[C@H]3COC(=O)[C@H]23)OCO4)cc(OC)c1O [Etoposide]', 'HCC1937', 'y'),
  ('C#Cc1cccc(Nc2ncnc3cc(OCCOC)c(OCCOC)cc23)c1 [Erlotinib]', 'HCC1937', 'y'),
  ('CCC1=C[C@@H]2CN(C1)Cc1c([nH]c3ccccc13)[C@@](C(=O)OC)(c1cc3c(cc1OC)N(C)[C@H]1[C@@](O)(C(=O)OC)[C@H](OC(C)=O)[C@]4(CC)C=CCN5CC[C@]31[C@@H]54)C2 [Vinorelbine]', 'HCC1937', 'y'),
  ('CO[C@H]1/C=C\C=C(/C)C(=O)NC2=CC(=O)C(NCCN(C)C)=C(C[C@@H](C)C[C@H](OC)[C@H](O)[C@@H](C)/C=C(\C)[C@@H]1OC(N)=O)C2=O [Alvespimycin]', 'HCC1937', 'y'),
  ('CCC1(c2ccc(N)cc2)CCC(=O)NC1=O (stereo not drawn) [Aminoglutethimide]', 'HCC1937', 'n'),
  ('NCC(=O)CCC(=O)O [Aminolevulinic acid]', 'HCC1937', 'y'),
  ('COc1cc2nccc(Oc3ccc(NC(=O)C4(C(=O)Nc5ccc(F)cc5)CC4)cc3)c2cc1OC [Cabozantinib]', 'HCC1937', 'n');
